experiment: logP determination by retention times (calibration with alkan-2-ones)
reportedMetric: chromatographic logP
Write the number on its own, no unit after it.

Input: Reported chromatographic logP for Cc1nc(C2CCCCC2)sc1-c1ccnc(Nc2ccccc2)n1 [Example 219] : what is it?
Output: 4.65

Input: Next entry: CCc1nc(C)c(-c2ccnc(Nc3ccc(O)cc3)n2)s1 [Example 327]
Output: 1.88

###

Quick reference for chromatographic logP among some compounds
experiment: logP determination by retention times (calibration with alkan-2-ones)
Write the number on its own, no unit after it.

- compound: "COc1ccc(Nc2nccc(-c3sc(C)nc3C)n2)cn1"
  chromatographic logP: 2.09
- compound: "COCc1nc(C)c(-c2ccnc(Nc3cccc(C(C)=O)c3)n2)s1"
  chromatographic logP: 2.38

Input: Reported chromatographic logP for `Cc1nc(N)sc1-c1ccnc(Nc2ccc(F)cc2)n1` : what is it?
Output: 1.56

Input: Next entry: COCC(C)Nc1nc(C)c(-c2ccnc(Nc3cccc(OC)c3)n2)s1 (stereo not drawn)
Output: 2.03

Input: Next entry: `Cc1nc(C2CC2)sc1-c1ccnc(Nc2ccc(C(F)(F)F)cc2)n1`
Output: 4.2

Input: Next entry: `Cc1nc(C(C)C)sc1-c1ccnc(Nc2ccc(F)c(F)c2)n1`
Output: 3.95

Input: Next entry: `CC(=O)c1cccc(Nc2nccc(-c3sc(C(C)C)nc3C)n2)c1`
Output: 3.1

Input: Next entry: `CSc1nc(C)c(-c2ccnc(Nc3ccc(N(C)C)c(Cl)c3)n2)s1`
Output: 2.74

Input: Next entry: `COC(=O)Nc1ccc(Nc2nccc(-c3sc(C)nc3C)n2)cc1`
Output: 1.84

###

experiment: logP determination by retention times (calibration with alkan-2-ones)
conditionNotes: logP, * HPLC reversed-phase C18, 40° C., mobile phase 0.1% aqueous formic acid and acetonitrile, linear gradient 10% to 95% acetonitrile
Group membership follows chromatographic logP per the scheme lower band = under 2, central band = from 2 up to 3, upper band = 3 and over

Solved cases (10 shown):
- compound: "COCc1nc(C)c(-c2ccnc(Nc3ccc(F)cc3)n2)s1"
  group: "central band"
- compound: "Cc1nc(N)sc1-c1ccnc(Nc2ccc(CNC(=O)OC(C)(C)C)cc2)n1"
  group: "lower band"
- compound: "Cc1nc(NCC2CCCO2)sc1-c1ccnc(Nc2cccc(Cl)c2)n1 (stereo not shown)"
  group: "central band"
- compound: "COc1cc(Nc2nccc(-c3sc(C)nc3C(F)F)n2)cc(OC)c1OC"
  group: "central band"
- compound: "CCc1nc(C)c(-c2ccnc(Nc3ccc(F)cc3F)n2)s1"
  group: "upper band"
- compound: "Cc1nc(C(C)C)sc1-c1ccnc(Nc2ccc(Cl)cc2)n1"
  group: "upper band"
- compound: "COCC(C)Nc1nc(C)c(-c2ccnc(Nc3cccc(Cl)c3)n2)s1 (stereo not shown)"
  group: "central band"
- compound: "COc1cc(N(C(C)=O)c2nccc(-c3sc(C(C)C)nc3C)n2)cc(OC)c1OC"
  group: "central band"
- compound: "COCCNc1nc(C)c(-c2ccnc(Nc3cccc(O)c3)n2)s1"
  group: "lower band"
- compound: "CCc1nc(C)c(-c2ccnc(Nc3ccc(Cl)cc3Cl)n2)s1"
  group: "upper band"

Input: Each compound maps to one class by chromatographic logP. Which class for `COc1cc(Nc2nccc(-c3sc(-c4cccnc4)nc3C)n2)cc(OC)c1OC` ?
Output: central band
